B1: KLHL14 (parent)
chain: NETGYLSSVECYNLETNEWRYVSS

# Variants of: B1
# ASSAY_PROTOCOL: protein stability index of a GFP-peptide fusion (GPS, HEK-293T) (PSI 1-6); higher = more stable;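 also: lentivirally expressed fusions sorted by FACS into six bins by GFP to DsRed ratio, PSI derived from sequencing read proportions per bin multiplied by bin number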
# REPORTED_CONDITIONS: c terminus: a fixed tail appended
READOUT: protein stability index
Answers are plain numbers.

Would you mind giving protein stability index for every variant in the list below?
1. NETGYLSSVECYNLETNMWRYVSS [E18M]
2. NETGYLSSVECYNLETNEWRQVSS [Y21Q]
3. NETGYLSSVECYALETNEWRYVSS [N13A]

1. 2.92
2. 3.02
3. 2.99
